- test system: BRD4 (BD1) (Homo sapiens, UniProt O60885)
- Construct: A pET28 plasmid containing residues 44–168 of BRD4 (BD1), a 6xHis tag, a TEV protease cleavage site; 6xHis (N, cleaved yes); made in house; host or cells: E. coli Rosetta (D3)
- experimental protocol: Differential scanning fluorimetry (DSF) single-dose thermal shift screening
- Type: binding
- experimental conditions: DSF, compound 10 µM, BRD4 (BD1) 2 µM, n = 3, decimal comma; read-out: ΔTm ºC at [10 µM]
Reported ΔTm at 10 µM values for the following molecules.
Please make sure the unit comes right after the number.

Ask | Name the recorded ΔTm at 10 µM for `Cc1ncc(CNC(=O)c2c(-c3ccccc3)nn3ccccc23)c(O)n1` .
Reply | 1.2 °C

Others:
Ask | Need ΔTm at 10 µM of COc1ccc(-n2c(C)nnc2SCC(=O)NC2CCC3(CNC3)C2)cc1 (centres unmarked) , thanks.
Reply | 2.73 °C

Ask | Entry under review: `COc1ccc(CNc2ccc3ccn(C)c(=O)c3c2)cc1OCC(C)C` . Reported ΔTm at 10 µM?
Reply | 0.25 °C
